B1: TPR 5TU (parent)
chain: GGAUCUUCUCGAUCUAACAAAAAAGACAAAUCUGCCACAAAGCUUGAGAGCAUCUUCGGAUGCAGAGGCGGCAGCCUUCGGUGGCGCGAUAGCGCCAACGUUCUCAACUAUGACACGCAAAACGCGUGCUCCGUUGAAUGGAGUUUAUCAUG

Variants of: B1
PROTOCOL TEXT: polymerase ribozyme fitness, log enrichment relative to wild type (log ratio); higher = more active; in vitro selection for triplet polymerase activity
Variants at the floor of the assay were thinned out.
Values of polymerase ribozyme fitness (log ratio) greater than or equal to -1 map to Satisfied; values below map to Not satisfied.

hey, is polymerase ribozyme fitness (log ratio) for this one >= -1? A19C C93U
Satisfied

hey, is polymerase ribozyme fitness (log ratio) for this one >= -1? A17G G25C G50A G86A C93G
Not satisfied

hey, is polymerase ribozyme fitness (log ratio) for this one >= -1? C5G U7G A12C A22U U90C U144A
Not satisfied

hey, is polymerase ribozyme fitness (log ratio) for this one >= -1? C38G C54U C57U G141C
Not satisfied

hey, is polymerase ribozyme fitness (log ratio) for this one >= -1? G59C C76A C87U A147C
Not satisfied

hey, is polymerase ribozyme fitness (log ratio) for this one >= -1? A12C C85U A142U
Not satisfied

hey, is polymerase ribozyme fitness (log ratio) for this one >= -1? G48C A115G G133A
Not satisfied

hey, is polymerase ribozyme fitness (log ratio) for this one >= -1? G70C G83C C105U C125U
Not satisfied

hey, is polymerase ribozyme fitness (log ratio) for this one >= -1? C103G C108G G124C U144A U145G
Not satisfied

hey, is polymerase ribozyme fitness (log ratio) for this one >= -1? G50C C76U C85U C116G
Not satisfied

hey, is polymerase ribozyme fitness (log ratio) for this one >= -1? A12U A19C C95U C105A
Not satisfied

hey, is polymerase ribozyme fitness (log ratio) for this one >= -1? A26C G84C C108G G133A
Not satisfied

hey, is polymerase ribozyme fitness (log ratio) for this one >= -1? G25A G48U U61G C96A A97G C132G
Not satisfied

hey, is polymerase ribozyme fitness (log ratio) for this one >= -1? U13A C18G
Satisfied

hey, is polymerase ribozyme fitness (log ratio) for this one >= -1? C43A A52C C75U U90G C95U C96G C114G U144G
Not satisfied

hey, is polymerase ribozyme fitness (log ratio) for this one >= -1? A21U C54U U146A
Satisfied

hey, is polymerase ribozyme fitness (log ratio) for this one >= -1? U15G G48A U53A A73G C85A
Not satisfied

hey, is polymerase ribozyme fitness (log ratio) for this one >= -1? A52G C96U A122U
Satisfied

hey, is polymerase ribozyme fitness (log ratio) for this one >= -1? C27U U55A G58C C87U U111C A142U
Not satisfied

hey, is polymerase ribozyme fitness (log ratio) for this one >= -1? C69G G88A U90G U146A
Not satisfied

hey, is polymerase ribozyme fitness (log ratio) for this one >= -1? C27U G86A U145A G152A
Not satisfied

hey, is polymerase ribozyme fitness (log ratio) for this one >= -1? A26G A89C A97C G143C
Not satisfied

hey, is polymerase ribozyme fitness (log ratio) for this one >= -1? A17G G86A
Satisfied

hey, is polymerase ribozyme fitness (log ratio) for this one >= -1? U44A U104A A115G
Not satisfied

hey, is polymerase ribozyme fitness (log ratio) for this one >= -1? U45A C96U
Not satisfied

hey, is polymerase ribozyme fitness (log ratio) for this one >= -1? A23C C27U A30G C93G U101A U104G A107U
Not satisfied

hey, is polymerase ribozyme fitness (log ratio) for this one >= -1? U7C A20U C96A C103U U109C G152U
Not satisfied

hey, is polymerase ribozyme fitness (log ratio) for this one >= -1? C51A G68U U82C C116U U146G
Not satisfied

hey, is polymerase ribozyme fitness (log ratio) for this one >= -1? A28G G42U
Not satisfied

hey, is polymerase ribozyme fitness (log ratio) for this one >= -1? A52C A89U C96G G141U
Not satisfied

hey, is polymerase ribozyme fitness (log ratio) for this one >= -1? A60U G84U C95G
Satisfied

hey, is polymerase ribozyme fitness (log ratio) for this one >= -1? A29C C54U C85U
Not satisfied

hey, is polymerase ribozyme fitness (log ratio) for this one >= -1? U55A A66G G92U A119C
Not satisfied

hey, is polymerase ribozyme fitness (log ratio) for this one >= -1? U15A C54U G92A
Not satisfied

hey, is polymerase ribozyme fitness (log ratio) for this one >= -1? C43G C87U U109G
Not satisfied

hey, is polymerase ribozyme fitness (log ratio) for this one >= -1? A40C A41C A49C A91U
Not satisfied

hey, is polymerase ribozyme fitness (log ratio) for this one >= -1? A20C A49G
Satisfied

hey, is polymerase ribozyme fitness (log ratio) for this one >= -1? U7G G11C A29C U82G C95U U109G
Not satisfied

hey, is polymerase ribozyme fitness (log ratio) for this one >= -1? C38U G48A C87A
Not satisfied

hey, is polymerase ribozyme fitness (log ratio) for this one >= -1? A21C C57A G81U C85A U139G
Satisfied

hey, is polymerase ribozyme fitness (log ratio) for this one >= -1? A49C G74C C87A C125U
Not satisfied

hey, is polymerase ribozyme fitness (log ratio) for this one >= -1? A39G U45A A49U U61A C75U G83U C129G U144G
Not satisfied

hey, is polymerase ribozyme fitness (log ratio) for this one >= -1? A16C G42U G58C G84U G100A U102G A137U U144C
Not satisfied

hey, is polymerase ribozyme fitness (log ratio) for this one >= -1? C38U U82C C85U U90G C99U C105U C108G A120G
Not satisfied

hey, is polymerase ribozyme fitness (log ratio) for this one >= -1? C54A C116U U139A
Not satisfied
